system: Plasmodium falciparum; test: ST_JUDE: Plasmodium falciparum K1 EC50 (uM) as measured by SYBR green dye; format: functional, organism-based
I'd appreciate it if you could supply pEC50 values for the items below.
# reply with the number alone; pEC50 is -log10 of concentration in mol/L

Lookup: pEC50 / Plasmodium falciparum / CCOC(=O)N1CCC(NC(=S)Nc2ccc(C(C)(C)C)cc2)CC1
5.58

Now the same for CCCN(C(=O)C(=O)Nc1ccc2nc3n(c(=O)c2c1)CCCCC3)c1ccc(OCC)cc1
6.54

What do we get for Cn1c(-c2ccc([N+](=O)[O-])cc2)[n+](C)c2ccccc21 ?
5.57

Also, CCCOc1cccc(C2c3c(-c4ccccc4O)n[nH]c3C(=O)N2CCCOCC)c1 (stereo not given) please.
5.11

----------
tested on: Plasmodium falciparum; assay: ST_JUDE: Plasmodium falciparum 3D7 EC50 (uM) as measured by SYBR green dye; type: functional, organism-based
Could you please report measured log10 of EC50 for the items listed next?
Scale: log10; quantity: EC50; unit before log: nM

# input molecule: CC(CNC(=O)c1cn(C2CCCCC2)cc(C(=O)NC(C)(C)C)c1=O)c1ccccc1 (stereo unspecified) ; wanted: its log10 of EC50
1.97

Also, Cc1ccc(C(C)(C)C)c(OCCCCn2ccnc2)c1 please.
3.82

What do you get for O=C1C(Nc2ccc(Br)cc2)=C(n2nnc3ccccc32)C(=O)c2ccccc21 ?
1.45

Would you kindly repeat that for Oc1ccc(Br)cc1CN1CCN(Cc2ccccc2)CC1 ?
2.94

One more molecule: CN1CCN(c2nc(Nc3cccc(Cl)c3)c3cnn(-c4ccccc4)c3n2)CC1
3.59

Query CCOc1ccc2c(c1)CN(Cc1ccc(Cl)cc1)CO2 next
3.17

Please do the same for CCCCCC(O)(c1ccccc1)C(CN1CCOCC1)c1ccccc1 (stereo unspecified) as well.
3.51

Also Cc1ccc(C(O)(CNCc2ccccc2)c2ccc(Br)cc2)cc1 (stereo unspecified) ?
3.35

Try COCCCNc1nc2cc(OC)c(OC)cc2c2nc(-c3ccccc3)nn12 next.
1.93

Then this molecule: COc1ccccc1N1CCN(Cc2cc(Cl)c3cccnc3c2O)CC1
3.52

----------
tested on: Toxoplasma gondii; assay: ST_JUDE: Growth inhibition of to Toxoplasma gondii, in human U-2OS cells, as measured by luciferase.; format: functional, organism-based; conditions: RH, U2OS
Task for the reader: assign each of the following compounds its reported EC50.

# get_value(readout='EC50', item= COC(=O)C1=CNC=C(C(=O)OC)C1c1ccc(Cl)c(Cl)c1 )
> 25.1 µM

Can you check Oc1ccc(Cl)cc1CN1CCN(c2cccc(C(F)(F)F)c2)CC1 next?
> 19.4 µM

Also CC(C)c1ccc(S(=O)(=O)NC2=C/C(=N\c3ccc(O)cc3)C(=O)c3ccccc32)cc1 , if possible.
> 19 µM

Could you do the same for COc1ccc(Nc2cc(C)nc(Nc3ccc(NS(=O)(=O)c4ccc(OC)cc4)cc3)n2)cc1 , please?
> 27.6 µM

Can you handle CCOC(=O)C1(Cc2cccc(F)c2)CCN(Cc2ccccc2O)CC1 next?
> 28.8 µM

Now the compound Cc1ccc(N2C(N)=NC(N)=NC2(C)C)cc1
5.71 µM

Query CCN(CC)CCCOC(=O)c1c(C)oc2cc3c(C(=O)OCCCN(CC)CC)c(C)oc3cc12 next
10.9 µM

Same thing, different compound: CCO/C(O)=C1\C(C)=NC2=C(C(=O)CC(c3ccc(OC)c(OC)c3)C2)C1c1cccc(Cl)c1 (stereo unspecified)
> 22.9 µM

Query CCN1/C(=C/c2cccc[n+]2C)Sc2ccc(OC)cc21 next
> 14.3 µM

Proceed to O=[N+]([O-])c1cc(CN2CCN(c3cccc(C(F)(F)F)c3)CC2)c2cccnc2c1O
> 17.5 µM

Try C/C=C/c1n(C)c2ccccc2[n+]1C next.
> 22 µM

Queued: CC(C)(C)NC(=O)c1cn(C2CCCCC2)cc(C(=O)NC2CCN(Cc3ccccc3)C2)c1=O (stereo unspecified)
> 15.7 µM

Another compound to look at: CCCO/C(O)=C1\C(C)=NC2=C(C(=O)CC(c3ccc(OC)c(OC)c3)C2)C1c1ccccc1F (stereo unspecified)
> 22.5 µM

What about this compound? CCOc1ccc(/C=C2\Oc3c(ccc(O)c3CN3CCCCC3)C2=O)cc1
> 25.8 µM

Same question, CCc1ccccc1NC(=O)C1c2ccccc2C(=O)N(CC(C)C)C1c1cccs1 (stereo unspecified) this time
> 23.6 µM

// next record CCOC(=O)c1cnc2c(OC)cccc2c1Nc1ccc(OC)c(OC)c1
> 24.7 µM

Also check CC[n+]1ccccc1C=Cc1ccc(N(C)C)cc1
> 24.8 µM

Can you handle COc1ccc(NC(=O)C2c3ccccc3C(=O)N(CC(C)C)C2c2cccs2)cc1Cl (stereo unspecified) next?
> 22.1 µM

One more compound: Cc1c2[nH]c3ccccc3c2c2c([n+]1C)CC(C)(C)CC2
> 30.4 µM

Now this one: CCO/C(O)=C1\C(C)=NC2=C(C(=O)CC(c3ccc(OC)c(OC)c3)C2)C1c1cccc(C)c1 (stereo unspecified)
> 22.3 µM

And Cc1ccc2c(c1)N(C)/C(=C/c1cccc[n+]1C)S2 ?
> 12.6 µM

----------
tested on: Plasmodium falciparum; test: ST_JUDE: Plasmodium falciparum K1 EC50 (uM) as measured by SYBR green dye; format: functional, organism-based
Task for the reader: assign each of the following compounds its reported log10 of EC50.
Form field - Quantity: EC50; Unit: nM; Scale: log10

Consider the compound shown here: CCOc1ccc2nc3cc(N)ccc3c(N)c2c1 What is its recorded log10 of EC50?
2.76

Try this compound next: CC(C)CCNCC(O)Cn1c2ccc(Br)cc2c2cc(Br)ccc21 (configuration not stated)
2.17

Now give it for Cc1ccc(C)c(NC(=O)c2c(-c3c(Cl)cccc3Cl)noc2C)c1 too.
3.64

Would you mind doing CC(C)Cn1c2c(c(=N)c3c1CCC3)CCCC2 as well?
3.58

Now give it for COc1ccccc1Cn1ccnc1SCC(=O)Nc1cccc(C(F)(F)F)c1 too.
3.20

Now the compound CCCC(=O)NC(c1ccc(Cl)cc1)c1ccc2cccnc2c1O (configuration not stated)
3.36

Next: C#CC[n+]1ccn2c(C)ccc2c1CC
3.14

What about CSc1cccc(NC(=O)Cn2c(C)c(C=O)c3ccccc32)c1 ?
3.63

What do you have for CCc1ccc(S(=O)(=O)/N=C2/C=C(Sc3nc[nH]n3)C(=O)c3ccccc32)cc1 ?
3.84

Again, but for CC(=O)N(C1=C(NCCO)C(=O)c2ccccc2C1=O)c1cccc(Br)c1
1.46

Request: CCN1CCN(Cc2c(O)ccc3c(=O)c(Oc4ccccc4C(C)C)c(C(F)(F)F)oc23)CC1
1.77

Param item: CCOc1ccccc1CNC(=O)C1c2ccccc2C(=O)N(CC(C)C)C1c1cccs1 (configuration not stated)
3.17

Same thing, different compound: COc1cccc(NC2=C(N3CCCCC3)C(=O)c3ccccc3C2=O)c1
2.18

Ok, now CCCCCOc1ccc(N(C(C)=O)C2=C(N3CCOCC3)C(=O)c3ccccc3C2=O)cc1
2.32

Now give it for CC(=O)NC(c1ccccc1Cl)c1ccc2cccnc2c1O (configuration not stated) too.
3.58

Further, for COc1ccc(Cn2c(SCc3ccccc3F)nc3nccnc3c2=O)cc1 ?
4.07

Try this compound too: CCOc1ccccc1N1CCN(Cc2cc(Br)cc(OC)c2O)CC1
3.05

Next up: Cc1cc(C)c2ccc(N)nc2c1O
3.68

Try COc1cccc(NC(=O)C2c3ccccc3C(=O)N(C3CCCC3)C2c2cccs2)c1 (configuration not stated) next.
2.68

# iterate: CC(C)OCc1cc(CN2CCN(c3cccc(Cl)c3)CC2)c(O)c2ncccc12
2.91

Please give the result for Cn1c(=O)oc2cc(S(=O)(=O)N3CCCC(C(=O)N4CCN(C(c5ccccc5)c5ccccc5)CC4)C3)ccc21 (configuration not stated) too.
3.21

----------
test system: Plasmodium falciparum; experiment: ST_JUDE: Plasmodium falciparum 3D7 EC50 (uM) as measured by SYBR green dye; type: functional, organism-based
ENDPOINT LABEL: pEC50
In plain terms, pEC50 is the concentration in mol/L turned into minus its base-10 logarithm.

Record lookup: for Plasmodium falciparum, what pEC50 belongs to CC[n+]1c(C=C2C=CN(C)C=C2)ccc2cc(C)ccc21 ?
5.55

Note, next up: Cc1ccc(-c2nc(C(=O)N(CCC#N)Cc3cccnc3)cs2)cc1F
5.48

Check COc1ccc(C(O)(CCC(C)C)C(CN2CCOCC2)c2ccc(Cl)cc2)cc1 (stereo not given) too.
5.34

And then Oc1ccc(Cl)cc1Nc1nc(C(F)(F)F)nc2ccccc12 , what is it?
5.92

Follow-up entry: COCCN1CCC(CN(Cc2ccncc2)Cc2ccc(CC(C)C)cc2)CC1
5.17

Please give the result for CCCC(=O)NC(c1ccc(Cl)cc1)c1c(OC(C)=O)ccc2ccccc12 (stereo not given) too.
5.16

Source: ChEMBL document CHEMBL1154198
